- assay.system: HIV-1 Env of isolate MGRM-A-014 (pseudovirus) (HIV-1)
- assay.explanation: cell-based or functional assay

binder	IC50 (µg/mL), pseudovirus neutralization
PGT-127 (5145_B14) (antibody, V domains shown) VH: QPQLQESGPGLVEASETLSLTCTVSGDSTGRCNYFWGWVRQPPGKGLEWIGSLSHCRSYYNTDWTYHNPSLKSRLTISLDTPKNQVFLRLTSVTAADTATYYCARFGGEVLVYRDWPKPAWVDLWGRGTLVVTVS VL: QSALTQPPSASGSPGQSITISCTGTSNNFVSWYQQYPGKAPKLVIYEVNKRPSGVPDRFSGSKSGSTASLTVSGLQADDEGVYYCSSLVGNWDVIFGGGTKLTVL	0.24
